Target: Mitogen-activated protein kinase 14 (Homo sapiens, UniProt Q16539)
Sequence (Q16539 whole entry): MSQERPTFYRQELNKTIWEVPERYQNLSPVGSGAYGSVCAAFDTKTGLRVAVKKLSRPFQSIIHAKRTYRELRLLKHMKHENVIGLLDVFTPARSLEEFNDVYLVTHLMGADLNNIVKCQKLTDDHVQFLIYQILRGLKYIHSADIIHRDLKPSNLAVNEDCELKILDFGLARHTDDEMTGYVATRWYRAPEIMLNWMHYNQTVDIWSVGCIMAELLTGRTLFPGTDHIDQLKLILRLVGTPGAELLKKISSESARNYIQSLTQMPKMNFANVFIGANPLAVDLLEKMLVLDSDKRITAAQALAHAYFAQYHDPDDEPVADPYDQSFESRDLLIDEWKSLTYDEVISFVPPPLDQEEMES
Experiment: Enzyme Inhibition Assay
Measure: pIC50
// returns pIC50 (minus log10 of molar concentration), number only

Write down pIC50 measured for item `CCn1c(=O)n(CC)c2cc(-c3[nH]c(C4CCNCC4)nc3-c3cccc(C)c3)ccc21`
7.15

// data source = BindingDB's records for doi:10.1016/j.bmcl.2003.12.023
